Data origin, for the record: ChEMBL document CHEMBL1201862

- System: HT-29
- EXPERIMENT: NCI tumour cell line growth inhibition, 48 h
Active and inactive are the calls of the source. No stated cut-off is given here; in the data, active = GI50 up to about 1.1 µM and inactive = higher.
Items are presented alongside their recorded GI50.

{"columns": ["COMPOUND", "SUBJECT_OF_TEST", "GI50"],
 "data": [
  ["COC(=O)c1ccccc1CC(Cc1ccccc1)C(=O)OC (stereo not given)", "HT-29", "55.5 µM (inactive)"],
  ["c1ccc2c(OCCSCCCCCCCCCCSCCOc3cccc4ccccc34)cccc2c1", "HT-29", "> 100 µM (inactive)"],
  ["COC1(OC)CC(CO)(CNc2nc(N)nc(Cl)c2/C=N\\O)C1", "HT-29", "38.4 µM (inactive)"],
  ["COC(=O)[C@@](C)(COC(=O)C(C)(C)C)NC(=O)OC(C)(C)C", "HT-29", "> 100 µM (inactive)"],
  ["N#CCCN(c1ccc(/C=N/c2ccccc2Cl)cc1)S(=O)(=O)c1ccccc1", "HT-29", "> 100 µM (inactive)"],
  ["CN(CCO)c1nc2c(c(=O)[nH]1)CNCC2", "HT-29", "> 100 µM (inactive)"],
  ["O=C1c2ccccc2C(=O)N1C/C=N/NS(=O)(=O)c1ccc(Cl)cc1", "HT-29", "> 100 µM (inactive)"],
  ["CC(=O)Nc1ccc2c(c1)[nH]c(=O)c1cc(Cl)ccc12", "HT-29", "15.4 µM (inactive)"],
  ["O=C(Nc1ccc([N+](=O)[O-])cc1)C(=O)C(C(=O)c1ccccc1F)C1OC(=O)c2ccccc21 (stereo not given)", "HT-29", "51.9 µM (inactive)"],
  ["CC(CC(=O)Nc1ccc(NC(=O)CC(C)/N=N\\C(N)=O)cc1)/N=N\\C(N)=O (stereo not given)", "HT-29", "> 100 µM (inactive)"]
]}

* * *

- System: HOP-62
- EXPERIMENT: NCI tumour cell line growth inhibition, 48 h
Activity calls are given as the source filed them. Rule as the data show it: active = GI50 up to about 1.1 µM and inactive = higher.
Reported GI50 values follow for various compounds

{"columns": ["COMPOUND", "GI50"],
 "data": [
  ["O=C1C2Nc3ccccc3SC2C(=O)N1c1cccc([N+](=O)[O-])c1 (stereo not given)", "> 54.8 µM (inactive)"],
  ["O=P1(Cc2ccccc2)c2ccccc2-c2ccccc21", "6.47 µM (inactive)"],
  ["COC(=O)c1cccc(COc2ccc([N+](=O)[O-])cc2Cl)c1", "> 100 µM (inactive)"],
  ["CC1(C)CN(CC(=O)O)CC(Cc2ccc(OCC(=O)O)cc2)N(CC(=O)O)CC(C)(C)SS1 (stereo not given)", "> 100 µM (inactive)"],
  ["CC(=O)NS(=O)(=O)c1ccc(NC(=O)COC(=O)c2cccc3c(=O)c4ccccc4[nH]c23)cc1", "> 100 µM (inactive)"],
  ["COc1ccc2c(c1)CC[C@@H]1C2CC[C@]2(C)C(=N\\O)/C(=N/O)CC12 (stereo not given in full)", "11.7 µM (inactive)"],
  ["CCCCCCCC(CC(=O)NC(CO)C(=O)NC(CO)CC(C)C)OC(=O)CC(CCCCCCC)OC(=O)CC(CCCCCCC)OC1OC(C)C(O)C(OC2OC(C)C(OC(C)=O)C(O)C2O)C1O (stereo not given)", "17.1 µM (inactive)"],
  ["COc1cccc(C2N3CCCCC3[C@@H]3c4[nH]c5ccccc5c4CCN23)c1OC (stereo not given in full)", "15.9 µM (inactive)"],
  ["c1cc2cc3c4c5c(cc6ccc7cc8cc9c%10c8c8c7c6c5c8c5c%10c(c1C9N1CCOCCOCCOCCOCCOCC1)c2c45)C3 (stereo not given)", "> 100 µM (inactive)"],
  ["CSC12c3cc(C)n(-c4ccccc4)c3CC(C)(C)CN1C(=O)C2Oc1ccccc1 (stereo not given)", "> 100 µM (inactive)"],
  ["COc1ccc(/N=C\\c2ccc(N(CCC#N)S(=O)(=O)c3ccccc3)cc2C)cc1", "25.1 µM (inactive)"],
  ["COC1=C(N=[N+]=[N-])C(=O)c2ncccc2C1=O", "15.8 µM (inactive)"],
  ["C[N+](C)(C)CCN[N+]1(C)CCCc2ccccc21 (stereo not given)", "> 100 µM (inactive)"],
  ["O=C1/C(=C/c2cccc([N+](=O)[O-])c2)N=C(c2ccccc2)N1c1nc2c(Cl)cc(Cl)cc2s1", "19.7 µM (inactive)"],
  ["OC(C1=C/C(=C\\c2ccncc2)c2ccccc21)c1ccncc1 (stereo not given)", "10.2 µM (inactive)"],
  ["Clc1cc(Cl)c2cc3cccc[n+]3cc2c1Cl", "15.6 µM (inactive)"],
  ["C=CCOC1OC(CO[Si](C)(C)C(C)(C)C)C(OCc2ccccc2)C(OCc2ccccc2)C1OCc1ccccc1 (stereo not given)", "21.7 µM (inactive)"],
  ["OC(COc1cccc2ccccc12)CN1CCOCC1 (stereo not given)", "> 100 µM (inactive)"],
  ["O=C(O)CCc1nc(-c2ccccc2)c(-c2ccccc2)o1", "> 100 µM (inactive)"],
  ["CC1(C)NC(C(=O)c2ccccc2)=[N+]([O-])C1(O)c1ccccc1 (stereo not given)", "> 100 µM (inactive)"]
]}

* * *

- Test system: NCI/ADR-RES
- EXPERIMENT: NCI tumour cell line growth inhibition, 48 h
Calls of active or inactive are those of the source. No stated cut-off is given here; in the data, active = GI50 up to about 1.1 µM and inactive = higher.
QUANTITY: GI50

{"columns": ["COMPOUND", "QUANTITY", "ASSAY_VALUE"],
 "data": [
  ["CN(C)C(=O)Oc1c(Br)cc(Br)cc1C(=O)OCc1ccccc1", "GI50", "18.5 µM (inactive)"],
  ["O=C(COC(=O)c1ccccc1)c1ccc(Br)cc1", "GI50", "21 µM (inactive)"],
  ["COc1ccc(N2C(=O)/C(=C\\c3cccc(Oc4ccccc4)c3)S(=O)(=O)C2c2ccccc2)cc1 (stereo not given)", "GI50", "16.2 µM (inactive)"],
  ["CC12CCC3c4ccc(O)cc4CCC3C1C/C(=N\\O)C2O (stereo not given)", "GI50", "> 100 µM (inactive)"],
  ["Nc1ncnc2c1ncn2C1C=CC(COS(N)(=O)=O)C1 (stereo not given)", "GI50", "66.2 µM (inactive)"],
  ["C=CCOC1OC(CS(=O)(=O)O)C(O)C(O)C1O (stereo not given)", "GI50", "> 100 µM (inactive)"],
  ["COC(=O)C1=C(O)CCCC(C2CCCCC(=O)C2C(=O)OC)=C1 (stereo not given)", "GI50", "> 100 µM (inactive)"],
  ["Nc1ncnc2ccc(Sc3ccc4ncnc(N)c4c3)cc12", "GI50", "> 100 µM (inactive)"],
  ["Cc1c(C)c(C)c(-n2c(=O)n(C)c(=O)n2-n2c(=O)n(C)c(=O)n2-c2c(C)c(C)c(C)c(C)c2C)c(C)c1C", "GI50", "61.2 µM (inactive)"],
  ["COC(=O)[C@@](C)(COC(=O)C(C)(C)C)NC(=O)OC(C)(C)C", "GI50", "> 100 µM (inactive)"]
]}

* * *

- System: A498
- EXPERIMENT: NCI tumour cell line growth inhibition, 48 h
Calls of active or inactive are those of the source. Rule as the data show it: active = GI50 up to about 1.1 µM and inactive = higher.
// reported GI50 for each item listed

{"columns": ["MOLECULE", "GI50"],
 "data": [
  ["O=C(O)/C=C/c1ccc(O)c(O)c1 [CAFFEIC ACID]", "> 100 µM (inactive)"],
  ["CS(C)(=O)=Nn1c(=O)n2n(c1=O)C1c3ccccc3C2c2ccccc21", "> 100 µM (inactive)"],
  ["C[C@]12C(=O)OC[C@H](c3ccccc3)N1C(=O)N(Cc1ccccc1)[C@@H]2CO", "> 100 µM (inactive)"],
  ["CCN(CC)CCOc1ccc(C(O)(Cc2ccc(OC)cc2)c2ccccc2)cc1 (configuration not stated)", "18.1 µM (inactive)"],
  ["COc1cccc(C2c3cc4c(cc3OC(C)(N3CCCC3)C2C)OCO4)c1O (configuration not stated)", "6.4 µM (inactive)"],
  ["COC(=O)C1=C(O)CCCC(C2CCCCC(=O)C2C(=O)OC)=C1 (configuration not stated)", "18.4 µM (inactive)"],
  ["CC(C)(C)OC(=O)N/N=C(/N)Cc1ccc(Cl)cc1", "> 100 µM (inactive)"],
  ["CC(C)CC1C(=O)NCCC(NC(=O)C(N)Cc2ccc(O)cc2)C(=O)NC(Cc2ccccc2)C(=O)NC(Cc2ccccc2)NC1=O (configuration not stated)", "> 100 µM (inactive)"],
  ["COC(=O)CCC(NC(=S)N/N=C(\\C)c1ccco1)C(=O)OC (configuration not stated)", "> 100 µM (inactive)"],
  ["COc1c(Sc2ccccc2)cc(Sc2ccccc2)c2cccnc12", "29.1 µM (inactive)"],
  ["NC1CC(=O)c2c1sc(Cl)c2Cl (configuration not stated)", "> 100 µM (inactive)"],
  ["COc1cc(C(=O)N(C(=S)OC23CC4CC(CC(C4)C2)C3)c2ccccc2)cc(OC)c1OC", "24.9 µM (inactive)"],
  ["CC[C@@H]1CC[C@@H]2[C@H](CC[C@]3(C)[C@@H](O)CC[C@@H]23)[C@H]1CO", "> 100 µM (inactive)"],
  ["Cc1ccc(C(C2C(=O)N(C)C(=O)N(C)C2=O)C(F)(F)C(=O)N(C)C)cc1 (configuration not stated)", "> 100 µM (inactive)"],
  ["CC(=O)O[C@H]1C(=O)N(c2cc3c4ccccc4ccc3c3ccccc23)[C@@H]1c1ccccc1", "21.8 µM (inactive)"],
  ["COc1ccc(C2NC(=S)Nc3c2c(=O)oc2c3ccc3ccccc32)cc1 (configuration not stated)", "38.9 µM (inactive)"],
  ["O=S(=O)(O)c1cc(/N=N/c2cc(S(=O)(=O)O)c3ccccc3c2O)ccc1/C=C/c1ccc(/N=N/c2cc(S(=O)(=O)O)c3ccccc3c2O)cc1S(=O)(=O)O", "> 100 µM (inactive)"],
  ["O=C(NOC(=O)c1ccc([N+](=O)[O-])cc1)c1ccc(Cl)cc1", "> 100 µM (inactive)"],
  ["COc1ccc(CN2CC(C)(C)C2=O)c(OC)c1", "> 100 µM (inactive)"],
  ["O=C1/C(=C/c2cccc([N+](=O)[O-])c2)N=C(c2ccccc2)N1c1nc2c(Cl)cc(Cl)cc2s1", "18.7 µM (inactive)"],
  ["CC#CC(OCC)(OCC)OCC", "> 100 µM (inactive)"],
  ["C=C1C(=O)O[C@@H]2O[C@@]3(C)CC[C@H]4[C@H](C)CC[C@@H]1[C@@]24O3 [DEOXYARTEMISITENE]", "34.6 µM (inactive)"],
  ["NC(=O)C12C3C4C1C1C2C3C41C(N)=O (configuration not stated)", "> 100 µM (inactive)"],
  ["COC1OC(COC(C)=O)C(OC(C)=O)C(OC(C)=O)C1NC(=O)N(CCCl)N=O (configuration not stated)", "> 100 µM (inactive)"],
  ["Cc1nnc2n1-c1ccccc1-c1[nH]c3ccccc3c1C2", "19.2 µM (inactive)"],
  ["O=C(Nc1nc(C23CC4CC(CC(C4)C2)C3)cs1)c1c(O)c2ccccc2[nH]c1=O", "> 100 µM (inactive)"],
  ["CCC1(O)C(=O)OCc2c1cc1n(c2=O)Cc2cc3cc(N)ccc3nc2-1 (configuration not stated)", "0.125 µM (active)"],
  ["CCCN1CN(C(C(=O)N[C@@H]2C(=O)N3C2SC(C)(C)C3C(=O)O)c2ccc(O)cc2)CSC1=S (some centres not stated)", "> 100 µM (inactive)"],
  ["O=C1C2Nc3ccccc3SC2C(=O)N1c1cccc([N+](=O)[O-])c1 (configuration not stated)", "> 100 µM (inactive)"],
  ["Oc1ccc(Cl)cc1C1=NC(/N=C\\c2ccccc2)=NC(c2ccccc2)C1 (configuration not stated)", "73.6 µM (inactive)"],
  ["COc1ccc(/C=N/NS(=O)(=O)c2ccc(/C=C3\\NC(=O)N(C)C3=O)cc2)cc1", "70.6 µM (inactive)"],
  ["C/C=C/C1(NS(=O)(=O)c2ccc(C)cc2)CCC(C(C)(C)C)CC1 (configuration not stated)", "24 µM (inactive)"],
  ["C#CC1(O)CCCCCCCCC2(CCCCCCCC1)OCCO2", "14.7 µM (inactive)"],
  ["O=C1OC(O)C(Oc2ccc(Cl)cc2)=C1Cl (configuration not stated)", "> 100 µM (inactive)"],
  ["C/C(=N\\NS(=O)(=O)c1ccccc1)c1ccc(Cl)c(Cl)c1", "41.8 µM (inactive)"],
  ["N#Cc1c(NCCc2ccc(F)cc2)c2ccccc2n2c1nc1ccccc12", "21 µM (inactive)"],
  ["Clc1cc(Cl)c2cc3cccc[n+]3cc2c1Cl", "18.6 µM (inactive)"],
  ["Cc1cccc2c(=O)c3c(O)cc(O)cc3n(C)c12", "7.29 µM (inactive)"],
  ["Cc1c(C)c(C)c(-n2c(=O)n(C)c(=O)n2-n2c(=O)n(C)c(=O)n2-c2c(C)c(C)c(C)c(C)c2C)c(C)c1C", "> 100 µM (inactive)"],
  ["COc1ccc2c(O)c3[n+](cc2c1OC)CCc1cc2c(cc1-3)OCO2", "61.5 µM (inactive)"],
  ["Cc1cc([N+](=O)[O-])ccc1NC(=O)C(=O)C(C(=O)c1ccccc1-c1ccccc1)C1OC(=O)c2ccccc21 (configuration not stated)", "> 10 µM (inactive)"],
  ["COC(=O)C1=COc2c(n(C)c3ccccc23)-c2ccccc21", "> 100 µM (inactive)"]
]}
